# Test system: 931267-113-T-J1-PDC KRAS spheroid with HUVEC/MSC, viability
# TEST DESCRIPTION: Anticancer human tumor 931267-113-T-J1-PDC patient-derived colon adenocarcinoma cell line growth inhibition [KRAS2]
# REPORTED CONDITIONS: compound 0.01 µM; stronger effect = lower value
RECORDED METRIC: viability, T/C

Some entries whose results are on file:
CC(=O)Nc1cccc(-n2c(=O)n(C3CC3)c(=O)c3c(Nc4ccc(I)cc4F)n(C)c(=O)c(C)c32)c1 ... 55% [middle of 5 runs]
CN(C)C/C=C/C(=O)Nc1cc2c(Nc3ccc(F)c(Cl)c3)ncnc2cc1O[C@H]1CCOC1 ... 79.1% [middle of 5 runs]
Cn1ncnc1[C@H]1c2n[nH]c(=O)c3cc(F)cc(c23)N[C@@H]1c1ccc(F)cc1 ... 88.3% [middle of 5 runs]

Let us examine a further case.
The compound identified as CCN1CCN(Cc2ccc(Nc3ncc(F)c(-c4cc(F)c5nc(C)n(C(C)C)c5c4)n3)nc2)CC1 registered its viability, T/C at 88.8% [middle of 5 runs]

* * *

# Test system: 931267-113-T-J1-PDC KRAS spheroid with HUVEC/MSC, viability
# TEST DESCRIPTION: Anticancer human tumor 931267-113-T-J1-PDC cell line growth inhibition [KRAS2];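 further: compound exposure lasted 7 days before the readout; 100% = DMSO vehicle control viability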
# REPORTED CONDITIONS: second compound 0.1 µM; first compound 0.000316 µM; stronger effect = lower value
Quick rule for you: viability, T/C under 90% gets Fulfilled, anything else gets Not fulfilled.

Report whether reported viability, T/C is lower than 90% (strictly) for CC(C)n1nc(-c2ccc3oc(N)nc3c2)c2c(N)ncnc21 + COc1cc2nc(C)nc(NC(C)c3cc(N)cc(C(F)(F)F)c3)c2cc1OC1CCOC1
Not fulfilled

Would you kindly verify if viability, T/C of CC(C)n1nc(-c2ccc3oc(N)nc3c2)c2c(N)ncnc21 + CNCc1ccccc1-c1csc(C(C)Nc2nc(C)nc3cc(OC)c(OC)cc23)c1 is strictly less than 90%?
Fulfilled

Record Cn1ncnc1[C@H]1c2n[nH]c(=O)c3cc(F)cc(c23)N[C@@H]1c1ccc(F)cc1 + C=CC(=O)N1CCN(c2nc(=O)n(-c3c(C)ccnc3C(C)C)c3nc(-c4c(O)cccc4F)c(F)cc23)C(C)C1 : is its viability, T/C strictly below 90%?
Not fulfilled

Problem: For the molecule CC(C)n1nc(-c2ccc3oc(N)nc3c2)c2c(N)ncnc21 + C=CC(=O)N1CCN(c2nc(=O)n(-c3c(C)ccnc3C(C)C)c3nc(-c4c(O)cccc4F)c(F)cc23)C(C)C1 , is viability, T/C under 90%?
Not fulfilled

Below 90% on viability, T/C? Entry CC(=O)Nc1cccc(-n2c(=O)n(C3CC3)c(=O)c3c(Nc4ccc(I)cc4F)n(C)c(=O)c(C)c32)c1 + C=CC(=O)N1CCN(c2nc(OCC3CCCN3C)nc3c2CCN(c2cccc4cccc(C)c24)C3)CC1CC#N
Fulfilled

Report whether reported viability, T/C is lower than 90% (strictly) for CC(C)n1nc(-c2ccc3oc(N)nc3c2)c2c(N)ncnc21 + C=CC(=O)N1CCN(c2nc(OCC3CCCN3C)nc3c2CCN(c2cccc4cccc(C)c24)C3)CC1CC#N
Not fulfilled

Is it true that viability, T/C reported for Cn1ncnc1[C@H]1c2n[nH]c(=O)c3cc(F)cc(c23)N[C@@H]1c1ccc(F)cc1 + CNCc1ccccc1-c1csc(C(C)Nc2nc(C)nc3cc(OC)c(OC)cc23)c1 is less than 90%?
Not fulfilled

Lab note: viability, T/C threshold 90%. Does this molecule come in strictly under it? Cn1ncnc1[C@H]1c2n[nH]c(=O)c3cc(F)cc(c23)N[C@@H]1c1ccc(F)cc1 + C=CC(=O)N1CCN(c2nc(OCC3CCCN3C)nc3c2CCN(c2cccc4cccc(C)c24)C3)CC1CC#N
Not fulfilled
